Tested on: NCI-H322M lung
Experiment: NCI-60 one-dose screen, 48 h
Conditions: 10 µM unless noted
The panel holds about 83,000 compounds, 20% with a hit somewhere; the sample as a whole holds those more often. Activity calls are given as the source filed them. Rule for the calls: active = growth percent below 10; inactive = the rest.
Classes used: 1 (yes) = active, 0 (no) = inactive

[[record]]
compound = "COc1ccc(/C=C/C(=O)OCC(=O)NNC(=O)c2ccccc2)cc1OC"
system = "NCI-H322M lung"
assigned_class = "0 (no)"

[[record]]
compound = "O=C1N=C(c2c(-c3[nH]c(=O)c4ccc(Br)cc4c3O)c(O)c3ccccc3c2O)C(=O)c2cc(Br)ccc21"
system = "NCI-H322M lung"
assigned_class = "1 (yes)"

[[record]]
compound = "COc1ccc(/C=C2\\CCCC3=C2NC(C)=NC3c2ccc(OC)c(OC)c2)cc1OC (stereo not given)"
system = "NCI-H322M lung"
assigned_class = "0 (no)"

[[record]]
compound = "Cc1ccc2c(c1)C(C)Cc1c(N(C)C)ncnc1N2C (stereo not given)"
system = "NCI-H322M lung"
assigned_class = "0 (no)"

[[record]]
compound = "C=C1C(=O)O[C@H]2[C@H]1CC/C(Cn1cc(-c3ccsc3)nn1)=C\\CC[C@@]1(C)O[C@@H]21"
system = "NCI-H322M lung"
assigned_class = "0 (no)"

[[record]]
compound = "CCC#CC[C@H]1C/C=C2/C(=O)C=C[C@@H]2C/C=C\\CCCC(=O)O1"
system = "NCI-H322M lung"
assigned_class = "0 (no)"

[[record]]
compound = "CC(C)(C)OC(=O)N1C/C(=C\\c2cccs2)C(=O)/C(=C/c2cccs2)C1"
system = "NCI-H322M lung"
assigned_class = "0 (no)"

[[record]]
compound = "COc1ccc(Cn2c(SC)nc(=O)n(Cc3ccc(Cl)cc3)c2=O)cc1"
system = "NCI-H322M lung"
assigned_class = "0 (no)"

[[record]]
compound = "Cc1sc2nc(CSc3nnc(-c4ccco4)o3)[nH]c(=O)c2c1C"
system = "NCI-H322M lung"
assigned_class = "0 (no)"

[[record]]
compound = "CCn1cc(C(=O)O)c(=O)c2cc(F)c(N3CCN(S(=O)(=O)c4ccc(OC)c(OC)c4)CC3)cc21"
system = "NCI-H322M lung"
assigned_class = "0 (no)"

